# Assayed Target: full-length hepatitis C viral protein NS3•4A (Hepatitis C virus genotype 1a, UniProt P27958)
# Construct: hexa-histidine (N); made in house; host or cells: Sf9 insect cells (baculovirus, pVL1392)
# Protocol Text: biochemical
# Set-up: species or system HCV sub-type strain 1a
# Setup Conditions: Enzyme Assay 2 (HCV NS3 Peptide Cleavage Assay) activity, apparent Ki class
Listed below: Ki values for each entry.

As a guide, the following entries are already answered.
Compound	Ki
CC(C)(C)[C@H](NC(=O)CC1CCCCC1)C(=O)N1C[C@@]2(CC(c3cncc(Cl)c3)=NO2)C[C@H]1C(=O)NC(CC1CCC1)C(=O)C(=O)NC1CC1 (stereo partly drawn)	0.1 to 0.5 µM
CCC[C@H](NC(=O)[C@@H]1C[C@]2(CC(c3cc(Cl)cc(OC)c3Cl)=NO2)CN1C(=O)[C@@H](NC(=O)CC1CCCCC1)C(C)(C)C)C(=O)C(=O)NC1CC1	0.1 to 0.5 µM
CNC(=O)C(=O)[C@H](CC1CC1)NC(=O)C1C[C@]2(CC(c3cccc(Cl)c3)=NO2)CN1C(=O)[C@@H](NC(=O)C1CCC1)C(C)(C)C (stereo partly drawn)	< 0.1 µM
CCC[C@H](NC(=O)[C@@H]1C[C@]2(CC(c3cc(Cl)ccc3OC)=NO2)CN1C(=O)[C@@H](NC(=O)CC1CCCCC1)C(C)(C)C)C(=O)C(N)=O	< 0.1 µM
CCC[C@H](NC(=O)[C@@H]1C[C@]2(CC(c3cccc(Cl)c3)=NO2)CN1C(=O)[C@@H](NC(=O)CC1CCCCC1)C(C)(C)C)C(=O)C(=O)NC(c1ccccc1)c1ccccn1 (stereo partly drawn)	> 0.5 µM

-- ask Answer with the recorded Ki of CCC[C@H](NC(=O)[C@@H]1C[C@]2(CC(c3cccnc3OC)=NO2)CN1C(=O)[C@@H](NC(=O)CC1CCCCC1)C(C)(C)C)C(=O)C(=O)NC1CC1 only.
-- reply 0.1 to 0.5 µM

-- ask Answer with the recorded Ki of CCC[C@H](NC(=O)[C@@H]1C[C@]2(CC(c3ccccc3)=NO2)CN1C(=O)[C@@H](NC(=O)CC1CCCCC1)C(C)(C)C)C(=O)C(=O)NC1CC1 only.
-- reply 0.1 to 0.5 µM

-- ask Answer with the recorded Ki of CCC[C@H](NC(=O)[C@@H]1C[C@]2(CC(c3cccc(Cl)c3)=NO2)CN1C(=O)[C@H](NS(=O)(=O)c1ccc(C)cc1)c1ccccc1)C(=O)C(=O)NC1CC1 only.
-- reply 0.1 to 0.5 µM

-- ask Answer with the recorded Ki of CCC[C@H](NC(=O)[C@@H]1CC2(CC(c3cccc(Cl)c3)=NO2)CN1C(=O)[C@H](CCSCC)NC(C)=O)C(=O)C(=O)NC1CC1 (stereo partly drawn) only.
-- reply 0.1 to 0.5 µM

-- ask Answer with the recorded Ki of CCC[C@H](NC(=O)[C@@H]1C[C@]2(CC(c3cccc(Cl)c3)=NO2)CN1C(=O)c1ccc(Cl)cc1Nc1ccc(OC)nc1)C(=O)C(=O)NC1CC1 only.
-- reply > 0.5 µM

-- ask Answer with the recorded Ki of CCC[C@H](NC(=O)[C@@H]1C[C@]2(CC(c3cccc(Cl)c3)=NO2)CN1C(=O)[C@@H](NC(=O)CC1CCCCC1)C(C)(C)C)C(=O)C(=O)NC1CCS(=O)(=O)C1 (stereo partly drawn) only.
-- reply > 0.5 µM

-- ask Answer with the recorded Ki of CCC[C@H](NC(=O)[C@@H]1C[C@]2(CC(c3cccc(Cl)c3)=NO2)CN1C(=O)C1=CC(c2cc(OC)ccc2OC)NC(=O)N1)C(=O)C(=O)NC1CC1 (stereo partly drawn) only.
-- reply > 0.5 µM

----------
# Assayed Target: full-length hepatitis C viral protein NS3•4A (Hepatitis C virus genotype 1a, UniProt P27958)
# Construct: hexa-histidine (N); made in house; host or cells: Sf9 insect cells (baculovirus, pVL1392)
# Protocol Text: biochemical
# Set-up: species or system HCV sub-type strain 1a
# Setup Conditions: Enzyme Assay 2, HCV NS3 Peptide Cleavage Assay, apparent Ki
Reported Property: Ki

As a guide, the following entries are already answered.
Mol Smiles	Measurement
CCC[C@H](NC(=O)[C@@H]1C[C@]2(CC(c3cc(C)c(OCC)c(C)c3)=NO2)CN1C(=O)[C@@H](NC(=O)[C@@H]1C[C@H]1C1CCCCC1)C(C)(C)C)C(=O)C(=O)NC	< 100 nM
CCC[C@H](NC(=O)[C@@H]1C[C@]2(CC(c3cc(Cl)ccc3OC)=NO2)CN1C(=O)[C@@H](NC(=O)[C@@H]1C[C@H]1c1ccccc1)C(C)(C)C)C(=O)C(=O)NC	< 100 nM
CCNC(=O)C(=O)[C@H](CC1CC1)NC(=O)[C@@H]1C[C@]2(CC(c3cc(Cl)ccc3OC)=NO2)CN1C(=O)[C@@H](NC(=O)[C@@H]1C[C@H]1c1ccccc1)C(C)(C)C	< 100 nM
CCC[C@H](NC(=O)[C@@H]1C[C@]2(CC(c3cccc(Cl)c3)=NO2)CN1C(=O)[C@@H](NC(=O)C1(C#N)CC1)C(C)(C)C)C(=O)C(=O)NC1CC1	< 100 nM
CNC(=O)C(=O)[C@H](CC1CC1)NC(=O)[C@@H]1C[C@]2(CC(c3cccc4cccnc34)=NO2)CN1C(=O)[C@@H](NC(=O)[C@H]1C[C@@H]1c1ccccc1)C(C)(C)C	100 to 500 nM

-- ask Answer with the recorded Ki of CCC[C@H](NC(=O)[C@@H]1C[C@]2(CC(c3cc(Cl)ccc3OC)=NO2)CN1C(=O)[C@@H](NC(=O)[C@@H]1C[C@H]1c1ccccc1)C(C)(C)C)C(=O)C(=O)NC1CC1 only.
-- reply < 100 nM

----------
Listed below: Ki values for each entry.
# Assayed Target: full-length hepatitis C viral protein NS3•4A (Hepatitis C virus genotype 1a)
# Construct: hexa-histidine (N); made in house; host or cells: Sf9 insect cells (baculovirus, pVL1392)
# Protocol Text: biochemical
# Design: species or system HCV sub-type strain 1a
# Setup Conditions: Enzyme Assay 2 (HCV NS3 Peptide Cleavage Assay) activity, apparent Ki class

Compound	Ki
CCC[C@H](NC(=O)[C@@H]1C[C@]2(CC(c3cnc(OC)c(Cl)c3)=NO2)CN1C(=O)[C@@H](NC(=O)CC1CCCCC1)C(C)(C)C)C(=O)C(=O)NC1CC1	< 100 nM

-- ask Answer with the recorded Ki of CCC[C@H](NC(=O)[C@@H]1C[C@]2(CC(c3cc(Cl)c(OC)cc3C)=NO2)CN1C(=O)[C@@H](NC(=O)CC1CCCCCC1)C(C)(C)C)C(=O)C(N)=O only.
-- reply 100 to 500 nM

-- ask Answer with the recorded Ki of CNC(=O)C(=O)[C@H](CC1CC1)NC(=O)[C@@H]1C[C@]2(CC(c3cccc4cccnc34)=NO2)CN1C(=O)[C@@H](NC(=O)CC1CCCCC1)C(C)(C)C only.
-- reply 100 to 500 nM

-- ask Answer with the recorded Ki of CCC[C@H](NC(=O)[C@@H]1C[C@]2(CC(c3cccc(Cl)c3)=NO2)CN1C(=O)[C@@H](NC(=O)CC1CCCCC1)C(C)(C)C)C(=O)C(=O)NCCc1c[nH]c2ccc(OC)cc12 only.
-- reply 100 to 500 nM

-- ask Answer with the recorded Ki of CCC[C@H](NC(=O)[C@@H]1C[C@]2(CC(c3cccc(Cl)c3)=NO2)CN1C(=O)[C@H](CC(C)C)NS(=O)(=O)c1ccc(OC)cc1)C(=O)C(=O)NC1CC1 only.
-- reply 100 to 500 nM

-- ask Answer with the recorded Ki of CCC[C@H](NC(=O)[C@@H]1C[C@]2(CC(c3cccc(Cl)c3)=NO2)CN1C(=O)[C@@H](NC(=O)CC1CCC(C)CC1)C(C)(C)C)C(=O)C(=O)NC1CC1 (stereo partly shown) only.
-- reply < 100 nM

-- ask Answer with the recorded Ki of CNC(=O)C(=O)[C@H](CC1CC1)NC(=O)[C@@H]1C[C@]2(CC(c3cc(Cl)cc4c3OCO4)=NO2)CN1C(=O)[C@@H](NC(=O)OC(C)(C)C)C(C)(C)C only.
-- reply 100 to 500 nM

----------
# Assayed Target: HCV NS3 protease domain (Hepatitis C virus genotype 1b)
# Construct: The first 181 amino acids of NS3 (residues 1027-1207 of the viral polyprotein); hexa-histidine (C); made in house; host or cells: E. coli BL21/DE3 pLysS
# Protocol Text: biochemical
# Setup Conditions: Enzyme Assay 1 (HCV NS3 Protease Domain Peptide Cleavage Assay) activity, apparent Ki class
pKi: −log10 of the molar value.
Listed below: pKi values for each entry.

As a guide, the following entries are already answered.
Molecule	Assayed Target	Measurement
CCC[C@H](NC(=O)[C@@H]1C[C@]2(CC(c3cccc(Cl)c3)=NO2)CN1C(=O)[C@H](Cc1ccc(OC(C)C)cc1)NC(C)=O)C(=O)C(=O)NC1CC1	HCV NS3 protease domain (Hepatitis C virus genotype 1b)	< 6.30
CCC[C@H](NC(=O)[C@@H]1C[C@]2(CC(c3cccc(Cl)c3)=NO2)CN1C(=O)[C@@H](NC(=O)OCCc1ccc(F)cc1)C(C)(C)C)C(=O)C(=O)NC1CC1	HCV NS3 protease domain (Hepatitis C virus genotype 1b)	< 6.30
CCC[C@H](NC(=O)[C@@H]1C[C@]2(CC(c3c(C)oc4ccccc34)=NO2)CN1C(=O)[C@@H](NC(=O)CC1CCCCC1)C(C)(C)C)C(=O)C(=O)NC1CC1	HCV NS3 protease domain (Hepatitis C virus genotype 1b)	6.30 to 7.00
CCC[C@H](NC(=O)[C@@H]1C[C@]2(CC(c3cccc(Cl)c3)=NO2)CN1C(=O)[C@@H](NC(=O)Cc1cc(=O)[nH]c(=O)[nH]1)C(C)(C)C)C(=O)C(=O)NC1CC1	HCV NS3 protease domain (Hepatitis C virus genotype 1b)	6.30 to 7.00
CCC[C@H](NC(=O)[C@@H]1C[C@]2(CC(c3cnc(OC)c(Cl)c3)=NO2)CN1C(=O)[C@@H](NC(=O)CC1CCCCC1)C(C)(C)C)C(=O)C(=O)NC1CC1	HCV NS3 protease domain (Hepatitis C virus genotype 1b)	> 7.00

Shift focus to the following entry.
-- ask Answer with the recorded pKi of CCC[C@H](NC(=O)[C@@H]1C[C@]2(CC(c3cccc(Cl)c3)=NO2)CN1C(=O)[C@@H](NC(=O)C(C)(C#N)Cc1ccccc1)C(C)(C)C)C(=O)C(=O)NC1CC1 (stereo partly drawn) only.
-- reply < 6.30

These entries and their values trace back to patent US7964624B1.
